- METHOD SUMMARY: qHTS assay to identify small molecule agonists of the AP-1 signaling pathway - cell viability counter screen (AID 1159525); also: nearly all actives have a fitted effect of over 55% in size
- PROTOCOL CONDITIONS: ME-180 (cervical carcinoma) AP-1-bla cells viability, ATP luminescence, 5 h; series mostly up to 76.8 µM
Inconclusive results are not listed. The source made the active and inactive calls. Calls follow the shape of the full dose curve.
Classes used: active, inactive

CC(C)(C)c1n[nH]c(=O)n(N)c1=O ... inactive
CC(=O)Nc1ccc(O)cc1 ... inactive
COc1cc(C=C2CCC/C(=C\c3ccc(O)c(OC)c3)C2=O)ccc1O ... active
C[Si](C)(C)Cl ... inactive
COc1ccccc1C=O ... inactive
Cn1cccc1 ... inactive
O=C(Nc1ccc(Cl)cc1)Nc1ccc(Cl)c(C(F)(F)F)c1 ... active
C=C(C)CCCC ... inactive
C=CC(C)C#N (stereo not given) ... inactive
CCCCCCCC/C=C\CCCCCCCC(=O)NCc1ccc(O)c(OC)c1 ... inactive
